Values were extracted from ChEMBL document CHEMBL1143012.

assayed target: Growth hormone secretagogue receptor type 1 (Homo sapiens)
Sequence (Q92847 whole entry): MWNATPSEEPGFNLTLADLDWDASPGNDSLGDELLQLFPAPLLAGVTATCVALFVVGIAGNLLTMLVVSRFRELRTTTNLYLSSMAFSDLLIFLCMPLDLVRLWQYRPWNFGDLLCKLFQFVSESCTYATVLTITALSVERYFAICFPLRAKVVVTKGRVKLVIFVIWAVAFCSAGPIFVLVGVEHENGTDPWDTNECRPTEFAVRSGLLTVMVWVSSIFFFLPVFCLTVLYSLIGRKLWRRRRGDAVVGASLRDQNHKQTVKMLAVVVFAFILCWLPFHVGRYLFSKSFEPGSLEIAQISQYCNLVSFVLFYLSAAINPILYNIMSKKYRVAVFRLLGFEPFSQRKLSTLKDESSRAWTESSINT
test method notes: Agonist activity at human GHS1a receptor expressed in CHO cells assessed as induction of intracellular calcium mobilization
pEC50: −log10 of the molar value.
measured metric: pEC50

# compound, assayed target, measured metric, reading
measured = [
    ("CCc1ccc(Cn2c(CCc3ccccc3)nnc2[C@@H](Cc2c[nH]c3ccccc23)NC(=O)C(C)(C)N)cc1", "Growth hormone secretagogue receptor type 1 (Homo sapiens)", "pEC50", 7.96),
    ("CC(C)(N)C(=O)N[C@H](Cc1c[nH]c2ccccc12)c1nnc(CCCc2c[nH]c3ccccc23)n1CCc1ccccc1", "Growth hormone secretagogue receptor type 1 (Homo sapiens)", "pEC50", 7.82),
    ("CC(C)(N)C(=O)N[C@H](Cc1c[nH]c2ccccc12)c1nnc(CCc2c[nH]c3ccccc23)n1Cc1ccc(F)cc1", "Growth hormone secretagogue receptor type 1 (Homo sapiens)", "pEC50", 6.68),
    ("COc1ccccc1Cn1c(CCc2ccccc2)nnc1[C@@H](Cc1c[nH]c2ccccc12)NC(=O)C(C)(C)N", "Growth hormone secretagogue receptor type 1 (Homo sapiens)", "pEC50", 7.01),
    ("COc1cccc(Cn2c(CCc3c[nH]c4ccccc34)nnc2[C@@H](Cc2c[nH]c3ccccc23)NC(=O)C(C)(C)N)c1", "Growth hormone secretagogue receptor type 1 (Homo sapiens)", "pEC50", 8.40),
    ("CC(C)(N)C(=O)N[C@H](Cc1c[nH]c2ccccc12)c1nnc(CCCc2c[nH]c3ccccc23)n1CCc1c[nH]c2ccccc12", "Growth hormone secretagogue receptor type 1 (Homo sapiens)", "pEC50", 6.85),
    ("CC(C)(N)C(=O)N[C@H](Cc1c[nH]c2ccccc12)c1nnc(CCc2ccccc2)n1Cc1ccco1", "Growth hormone secretagogue receptor type 1 (Homo sapiens)", "pEC50", 7.64),
    ("COc1cccc(Cn2c(CCc3ccccc3)nnc2[C@@H](Cc2c[nH]c3ccccc23)NC(=O)C(C)(C)N)c1", "Growth hormone secretagogue receptor type 1 (Homo sapiens)", "pEC50", 7.35),
    ("COc1cccc(Cn2c(CCCc3c[nH]c4ccccc34)nnc2[C@@H](Cc2c[nH]c3ccccc23)NC(=O)C(C)(C)N)c1", "Growth hormone secretagogue receptor type 1 (Homo sapiens)", "pEC50", 7.74),
    ("Cc1ccc(Cn2c(CCc3c[nH]c4ccccc34)nnc2[C@@H](Cc2c[nH]c3ccccc23)NC(=O)C(C)(C)N)cc1", "Growth hormone secretagogue receptor type 1 (Homo sapiens)", "pEC50", 6.20),
    ("Cc1ccc(Cn2c(CCCc3ccccc3)nnc2[C@@H](Cc2c[nH]c3ccccc23)NC(=O)C(C)(C)N)cc1", "Growth hormone secretagogue receptor type 1 (Homo sapiens)", "pEC50", 7.92),
    ("CC(C)(N)C(=O)N[C@H](Cc1c[nH]c2ccccc12)c1nnc(CCc2c[nH]c3ccccc23)n1Cc1ccccc1", "Growth hormone secretagogue receptor type 1 (Homo sapiens)", "pEC50", 7.19),
    ("CC(C)(N)C(=O)N[C@H](Cc1c[nH]c2ccccc12)c1nnc(CCc2c[nH]c3ccccc23)n1-c1ccccc1", "Growth hormone secretagogue receptor type 1 (Homo sapiens)", "pEC50", 7.39),
    ("CC(C)(N)C(=O)N[C@H](Cc1c[nH]c2ccccc12)c1nnc(CCCc2c[nH]c3ccccc23)n1Cc1ccccc1", "Growth hormone secretagogue receptor type 1 (Homo sapiens)", "pEC50", 7.31),
]
